# System: E31 (patient-derived glioblastoma stem cells of proneural subtype)
# Assay: phenotypic distance (Euclidean, principal components) from DMSO controls (arbitrary units); higher = stronger morphological change;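 also: cell Painting imaging in 384-well plates, CellProfiler features reduced to at least 20 principal components, Euclidean distance versus same-plate DMSO vehicle wells (0.1% v/v), median over six images per well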
# Protocol conditions: 4.1 nM; exposure time: 72 h
Measured parameter: phenotypic distance
Quick one: just the number, no unit, thanks!

Task item: Recorded phenotypic distance of `C=C(C)[C@H]1Cc2c(ccc3c2O[C@@H]2COc4cc(OC)c(OC)cc4[C@@H]2C3=O)O1` , please.
Reply: 0.668

Task item: And for `COc1cc(/C=C/C(=O)N2CCC=CC2=O)cc(OC)c1OC` ?
Reply: 1.19

* * *

# Test system: E13 (patient-derived glioblastoma stem cells of classical subtype)
# Assay: phenotypic distance (Euclidean, principal components) from DMSO controls (arbitrary units); higher = stronger morphological change
# Protocol conditions: 111.1 nM; exposure time: 72 h
phenotypic distance reference
Quick one: just the number, no unit, thanks!

* Cc1cc(Nc2cc(N3CCN(C)CC3)nc(Sc3ccc(NC(=O)C4CC4)cc3)n2)n[nH]1 | 4.34
* CCCCC1C(=O)N(c2ccccc2)N(c2ccc(O)cc2)C1=O (centres undefined) | 0.835
* O=C(C1CC1)N1CC[C@@H](Cc2n[nH]c(=O)n2-c2ccc(-c3ccc4occc4c3)cc2)C1 | 3.29
* COc1cc2c(cc1O)CC[C@@H]1[C@@H]2CC[C@]2(C)[C@@H](O)CC[C@@H]12 | 1.47

Task item: Recorded phenotypic distance of `COc1cc([C@@H]2c3cc4c(cc3[C@H](O)[C@H]3COC(=O)[C@H]23)OCO4)cc(OC)c1OC` , please.
Reply: 8.14

Task item: And for `S=c1[nH]cnc2nc[nH]c12` ?
Reply: 0.814

Task item: And for `Oc1ccc(OCc2ccccc2)cc1` ?
Reply: 0.608

Task item: And for `CN1CCC(NC(=O)c2cc(-c3c(O)cc(O)cc3Oc3ccc([N+](=O)[O-])cc3)on2)CC1` ?
Reply: 1.31

Task item: And for `COC(=O)Nc1nc2cc(Sc3ccccc3)ccc2[nH]1` ?
Reply: 1.88
